Biological target: Fatty acid-binding protein, liver (Homo sapiens)
Sequence (whole entry): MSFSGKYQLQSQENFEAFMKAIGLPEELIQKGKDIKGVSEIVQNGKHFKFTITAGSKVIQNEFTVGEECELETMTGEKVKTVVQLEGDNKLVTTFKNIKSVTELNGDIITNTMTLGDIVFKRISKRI
Assay: Inhibition of human FABP1 at 9 uM incubated for 3 mins by fluorescence based analysis relative to control
Readout label: inhibition (%)

[A] O=C(O)CC(NC(=O)C1CCCN(S(=O)(=O)c2cccc3cccnc23)C1)C(=O)O (stereo not drawn)
[B] O=C(O)c1ccc(NS(=O)(=O)c2cccc3cccnc23)cc1
[C] O=C(O)CCNS(=O)(=O)c1cccc2cccnc12
Prompt line: Hey, can you sort those compounds up there by inhibition, smallest first? Field: ranking. Enter the labels in the order requested.
Response line: B, C, A
(B: 1.28%, C: 3.47%, A: 12.1%)

Values compiled from ChEMBL document CHEMBL5608210.
